The measured values listed here are drawn from ChEMBL document CHEMBL1201862.

Test system: COLO 205
experiment: NCI tumour cell line growth inhibition, 48 h
Active and inactive are the calls of the source. No stated cut-off is given here; in the data, active = GI50 up to about 1.1 µM and inactive = higher.
value_kind: GI50

Asked: What GI50 appears in the records for this molecule with COLO 205? O=C(NC(Cc1ccccc1)(Cc1ccc(O)cn1)C(=O)O)c1ccccc1 (centres undefined)
Given back: 84.7 µM (inactive)

Asked: Queued: `N#CCC(=O)Nc1cccc(C(F)(F)F)c1`
Given back: > 100 µM (inactive)

Asked: Next molecule up: `CN(C)c1ccc(/C=N\NC(=O)Nc2cccc3ccccc23)cc1`
Given back: 4.99 µM (inactive)

Asked: Could you do the same for `O=[N+]([O-])c1ccc(C2=Nn3c(nnc3-c3ccc(Cl)cc3)SC2)o1` , please?
Given back: 2.05 µM (inactive)

----------
Hi there, I'd appreciate the recorded GI50 for every entry that follows.
Test system: HCT-116
experiment: NCI tumour cell line growth inhibition, 48 h
The source made the active and inactive calls. Rule as the data show it: active = GI50 up to about 1.1 µM and inactive = higher.

Asked: I have this compound here, `COc1cc(Nc2nc3ccccc3nc2-c2cccs2)cc(OC)c1OC` , and I need its recorded GI50.
Given back: 28.1 µM (inactive)

Asked: // same read-out, input: `C=CCCON(C(=O)OC(C)(C)C)C(C)(C)C`
Given back: > 100 µM (inactive)

Asked: Subsequent entry: O=C1/C(=C/c2ccccc2)N=C(c2ccccc2)N1C1Nc2cc3c(cc2S1)NC(N1C(=O)/C(=C/c2ccccc2)N=C1c1ccccc1)S3 (configuration not stated)
Given back: 32.5 µM (inactive)

Asked: Would you mind doing COc1cc([C@@H]2c3cc4c(cc3[C@@H](NC(=O)c3cccc(C#N)c3)C3COC(=O)[C@@H]32)OCO4)cc(OC)c1O (some centres not stated) as well?
Given back: 1.1 µM (active)

Asked: Now the same for `CN(C)CCCCN1c2ccccc2Sc2cc(N=[N+]=[N-])ccc21`
Given back: 1.78 µM (inactive)

Asked: Then this compound: `COc1ccc(OC)c(CNc2ccc(C(=O)O)cc2)c1`
Given back: > 100 µM (inactive)

Asked: Also need CC(=O)NC1C(OCc2ccccc2)OC(CO)C(O)C1OCC(=O)NC(C)C(=O)NC(CCC(=O)OCCNC(=O)c1cccc2cc3ccccc3nc12)C(N)=O (configuration not stated) , thanks.
Given back: 10.4 µM (inactive)

Asked: Next compound: NC(=O)NCCCC(NC(=O)OCCCCCn1ccc(=O)[nH]c1=O)C(=O)O (configuration not stated)
Given back: > 100 µM (inactive)

Asked: O=C1C=C[C@@H](COC2OC(CO)C(O)C(O)C2O)O1 (some centres not stated) , same question.
Given back: > 100 µM (inactive)

Asked: Then this compound: `CC(C)C(=O)NC(=S)Nc1ccc([N+](=O)[O-])cc1C#N`
Given back: > 100 µM (inactive)

Asked: Also need `O=c1ccc2ccc(S)cc2o1` , thanks.
Given back: > 100 µM (inactive)

Asked: Ok, now `Fc1ccc(C2(CCCN3CCc4[nH]c5cc(F)ccc5c4C3)OCCO2)cc1`
Given back: 11.5 µM (inactive)

----------
Test system: SNB-75
experiment: NCI tumour cell line growth inhibition, 48 h
The source made the active and inactive calls. Rule as the data show it: active = GI50 up to about 1.1 µM and inactive = higher.
Outcome (select one): label 1 for active, label 0 for inactive

Asked: Recorded test outcome, item `Cc1cc(-c2ccc(C(=O)C(c3ccccc3)(c3ccccc3)c3ccccc3)[nH]2)on1`
Given back: label 0

Asked: Repeat for the following compound: `Nc1nc(S)c2c(N)n[nH]c2c1C(=O)Nc1ccccc1`
Given back: label 0

Asked: Please give the result for CC(C)C1=CC(=O)C(C)(C2=NC(C)(C)CO2)c2ccccc21 (stereo not given) too.
Given back: label 0

Asked: Also `CCOC(=O)c1ccc(Nc2nc3ccccc3nc2-c2cccs2)cc1` , if possible.
Given back: label 0

Asked: Same question, `N#CNc1nc(C(=O)Nc2ccc(Cl)cc2)cc(-c2ccccc2)n1` this time
Given back: label 0

Asked: Similarly, COc1cc([C@@H]2c3cc4c(cc3[C@@H](NC(=O)c3cccc(C#N)c3)C3COC(=O)[C@@H]32)OCO4)cc(OC)c1O (stereo not given in full) ?
Given back: label 1

Asked: Now try `Cc1ccc(/N=C/C=C(\Nc2ccc(C)cc2)c2ccc3ccccc3c2)cc1` .
Given back: label 1

Asked: Okay, and `O=C(/C=C/c1ccc2c(c1)OCO2)NCc1ccco1` ?
Given back: label 0

Asked: Lookup NC(Cc1cc(I)c(Oc2ccc(O)c(I)c2)c(I)c1)C(=O)O (stereo not given)
Given back: label 0

Asked: Moving on to the next compound: `Cc1ccc(C(CCO)CCO)nc1`
Given back: label 0

Asked: Would you mind doing C[Si]1(C)C(c2ccccc2)=CC2C(c3ccccc3)(c3ccccc3)OC21c1ccccc1 (stereo not given) as well?
Given back: label 0

Asked: Check `COc1cc(NCC(C#N)C#N)ccc1/N=N/c1ccc(Cl)cc1` too.
Given back: label 0

Asked: Param item: `CN(Cc1ccccc1)C1(N(C)Cc2ccccc2)CC1`
Given back: label 0

Asked: Record: `CC(C)N(C(=O)C12CC3CC(CC(C3)C1)C2)C(C)C`
Given back: label 0

Asked: Can you handle CC1(C)C2CC(O)C1CCC2=O (stereo not given) next?
Given back: label 0
